Sourced from PubChem BioAssay AID743395

# Experimental details: HepG2 cell cytotoxicity, dose response, cytotoxicity control, CellTiter-Glo luminescence, cherry-pick, set 2 (AID 743395)
# Assay context: HepG2 viability, CellTiter-Glo ATP luminescence, 72 h; series mostly up to 26 µM
In all, about 1,200 compounds went through this assay and about 480 (40%) were called active. The set was probably picked from earlier hits. These entries were drawn from the full list. Potency and affinity values are given separately.
Property measured: outcome

Before answering, review these 10 worked examples.
{"Compound": "CN(C(=O)c1ccccc1OC1CCN(S(C)(=O)=O)CC1)C1CCOC1 (stereo not drawn)", "outcome": "inactive"}
{"Compound": "O=C(N/N=C/c1ccccc1OC(F)F)c1cc(-c2ccncc2)nc2ccccc12", "outcome": "inactive"}
{"Compound": "Nc1c2c(nc3ccccc13)CCCC2", "outcome": "inactive"}
{"Compound": "c1ccc(CCN(Cc2ccccc2)Cc2nc(C3CC3)no2)cc1", "outcome": "inactive"}
{"Compound": "O=C(NC(=S)Nc1ccc(-c2ccccc2)cc1)c1ccccc1", "outcome": "inactive"}
{"Compound": "CN(Cc1cccs1)C(=O)c1cccc(S(=O)(=O)N2CCCCCC2)c1", "outcome": "inactive"}
{"Compound": "c1ccc(-c2csc(NC3=NCCCCC3)n2)cc1", "outcome": "inactive"}
{"Compound": "Cc1ccc(C(=O)NNC(=O)c2ccc(S(=O)(=O)N3CCCCC3)cc2)cc1", "outcome": "inactive"}
{"Compound": "COc1ccc(CC(=O)Nc2nccs2)cc1S(=O)(=O)N1CCOCC1", "outcome": "inactive"}
{"Compound": "NS(=O)(=O)c1ccc(NNC(=O)c2ccc(Br)o2)c([N+](=O)[O-])c1", "outcome": "inactive"}

Provide each entry's outcome from the list below.
1. COCCCN=C1NN=C(c2cc(C)n(Cc3ccccc3Cl)c2C)CS1
2. COc1ccc(C)cc1NC(=O)CNC(c1ccccc1)c1ccc(C)cc1 (stereo not drawn)
3. CCOc1ccc(S(=O)(=O)N2CCCCC2)cc1NC(=O)c1ccccc1
4. Nc1ccn([C@@H]2O[C@H](C(=O)NCC(F)(F)F)[C@@H](O)[C@H]2O)c(=O)n1

1: inactive; 2: inactive; 3: inactive; 4: inactive

Provide each entry's outcome from the list below.
1. Cc1c(Cl)cccc1NC(=O)C1CC(=O)N(C2CCCC2)C1 (stereo not drawn)
2. NS(=O)(=O)c1ccc(NC(=O)c2cccc3cc4ccccc4nc23)cc1
3. O=C1NCCc2c1[nH]c1ccc([N+](=O)[O-])cc21

inactive
inactive
inactive

Provide each entry's outcome from the list below.
1. CCOc1ccc(C(=O)N[C@H](C(=O)Nc2cccc(S(=O)(=O)N3CCCCC3)c2)C(C)C)cc1
2. O=C(CC1Sc2ccccc2NC1=O)NNc1cccc(Cl)c1Cl (stereo not drawn)

inactive
inactive

Provide each entry's outcome from the list below.
1. COc1ccc(OC)c(-c2nnc3n2N=C(c2ccc(OC)c(OC)c2)CS3)c1
2. COC(=O)C1CC23C=CCN4CCC5(c6ccccc6NC15C2C)C43 (stereo not drawn)
3. CCOC(=O)C1=CN(Cc2ccco2)S(=O)(=O)NC1c1ccc(C(F)(F)F)cc1 (stereo not drawn)
4. CCNC(=O)C1CCCN(C(=O)c2cc(F)ccc2C)CC1 (stereo not drawn)
5. Clc1ccc(N(CC2CO2)CC2CO2)cc1 (stereo not drawn)
6. c1ccc2c(c1)N1CCCN=C1N2CCN1CCCCC1
7. CCOC(=O)c1[nH]c(C)c(/C(O)=C2\C(=O)C(=O)N(CCCN3CCOCC3)C2c2cccs2)c1C (stereo not drawn)

["inactive", "inactive", "inactive", "inactive", "inactive", "inactive", "inactive"]
